The values you see were collected from patent US20240182536A1.

- ASSAY_TARGET: T1, interleukin 18 binding protein (IL-18BP) (UniProt O95998 31-194)
- T1 sequence (looked up): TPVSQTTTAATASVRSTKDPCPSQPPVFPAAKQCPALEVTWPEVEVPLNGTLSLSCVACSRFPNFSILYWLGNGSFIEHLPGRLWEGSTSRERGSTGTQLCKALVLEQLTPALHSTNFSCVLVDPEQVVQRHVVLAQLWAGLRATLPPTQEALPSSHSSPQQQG
- ASSAY_TEXT: cell-based or functional assay
ASSAY_ENDPOINT: EC50 (pM) + 100 nM BP, HEK-blue re-screening

Quick one: EC50 (pM) + 100 nM BP, HEK-blue re-screening for IL-18 variant G3I, E6D, D54A, S55F, N91Y, R104H (ligand) YFIKLDSKLSVIRNLNDQVLFIDQGNRPLFEDMTDSDMRDNAPRTIFIISMYKAFQPRGMAVTISVKSEKISTLSSENKIISFKEMNPPDYIKDTKSDIIFFQHSVPGHDNKMQFESSSYEGYFLASEKERDLFKLILKKEDELGDRSIMFTVQNED ?
3.41 pM

Quick one: EC50 (pM) + 100 nM BP, HEK-blue re-screening for IL-18 variant G3E, E6G, N91M, R104A (ligand) YFEKLGSKLSVIRNLNDQVLFIDQGNRPLFEDMTDSDMRDNAPRTIFIISMYKDSQPRGMAVTISVKSEKISTLSSENKIISFKEMNPPDMIKDTKSDIIFFQASVPGHDNKMQFESSSYEGYFLASEKERDLFKLILKKEDELGDRSIMFTVQNED ?
3.49 pM

Quick one: EC50 (pM) + 100 nM BP, HEK-blue re-screening for IL-18 variant G3I, E6Q, N91M, R104Y (ligand) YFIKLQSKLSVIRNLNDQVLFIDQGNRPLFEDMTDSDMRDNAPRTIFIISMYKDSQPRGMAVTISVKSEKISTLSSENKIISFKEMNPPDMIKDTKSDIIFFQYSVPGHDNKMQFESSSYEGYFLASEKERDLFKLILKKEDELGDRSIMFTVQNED ?
3.77 pM

Quick one: EC50 (pM) + 100 nM BP, HEK-blue re-screening for IL-18 variant G3Q, E6N, D54Y, S55P, T63S, N91S, R104H (ligand) YFQKLNSKLSVIRNLNDQVLFIDQGNRPLFEDMTDSDMRDNAPRTIFIISMYKYPQPRGMAVSISVKSEKISTLSSENKIISFKEMNPPDSIKDTKSDIIFFQHSVPGHDNKMQFESSSYEGYFLASEKERDLFKLILKKEDELGDRSIMFTVQNED ?
34.7 pM

Quick one: EC50 (pM) + 100 nM BP, HEK-blue re-screening for IL-18 variant E6D, D54T, S55W, T63S, N91S, R104T (ligand) YFGKLDSKLSVIRNLNDQVLFIDQGNRPLFEDMTDSDMRDNAPRTIFIISMYKTWQPRGMAVSISVKSEKISTLSSENKIISFKEMNPPDSIKDTKSDIIFFQTSVPGHDNKMQFESSSYEGYFLASEKERDLFKLILKKEDELGDRSIMFTVQNED ?
62.8 pM

Quick one: EC50 (pM) + 100 nM BP, HEK-blue re-screening for IL-18 variant G3L, E6Q, D54Y, S55P, T63S, N91S, R104Q (ligand) YFLKLQSKLSVIRNLNDQVLFIDQGNRPLFEDMTDSDMRDNAPRTIFIISMYKYPQPRGMAVSISVKSEKISTLSSENKIISFKEMNPPDSIKDTKSDIIFFQQSVPGHDNKMQFESSSYEGYFLASEKERDLFKLILKKEDELGDRSIMFTVQNED ?
54.7 pM

Quick one: EC50 (pM) + 100 nM BP, HEK-blue re-screening for IL-18 variant E6G, D54A, S55K, T63S, N91K, Q114R (ligand) YFGKLGSKLSVIRNLNDQVLFIDQGNRPLFEDMTDSDMRDNAPRTIFIISMYKAKQPRGMAVSISVKSEKISTLSSENKIISFKEMNPPDKIKDTKSDIIFFQRSVPGHDNKMRFESSSYEGYFLASEKERDLFKLILKKEDELGDRSIMFTVQNED ?
2.17 pM

Quick one: EC50 (pM) + 100 nM BP, HEK-blue re-screening for IL-18 variant G3Q, E6S, S55V, T63A, N91T (ligand) YFQKLSSKLSVIRNLNDQVLFIDQGNRPLFEDMTDSDMRDNAPRTIFIISMYKDVQPRGMAVAISVKSEKISTLSSENKIISFKEMNPPDTIKDTKSDIIFFQRSVPGHDNKMQFESSSYEGYFLASEKERDLFKLILKKEDELGDRSIMFTVQNED ?
35.9 pM

Quick one: EC50 (pM) + 100 nM BP, HEK-blue re-screening for IL-18 variant G3Y, E6N, N91Y, R104S (ligand) YFYKLNSKLSVIRNLNDQVLFIDQGNRPLFEDMTDSDMRDNAPRTIFIISMYKDSQPRGMAVTISVKSEKISTLSSENKIISFKEMNPPDYIKDTKSDIIFFQSSVPGHDNKMQFESSSYEGYFLASEKERDLFKLILKKEDELGDRSIMFTVQNED ?
2.89 pM

Quick one: EC50 (pM) + 100 nM BP, HEK-blue re-screening for IL-18 variant G3E, E6H, R27S, D54A, S55T, T63S, N91F, R104S (ligand) YFEKLHSKLSVIRNLNDQVLFIDQGNSPLFEDMTDSDMRDNAPRTIFIISMYKATQPRGMAVSISVKSEKISTLSSENKIISFKEMNPPDFIKDTKSDIIFFQSSVPGHDNKMQFESSSYEGYFLASEKERDLFKLILKKEDELGDRSIMFTVQNED ?
3.01 pM

Quick one: EC50 (pM) + 100 nM BP, HEK-blue re-screening for IL-18 variant G3Q, E6K, D54S, S55P, T63S, N91S, R104Q (ligand) YFQKLKSKLSVIRNLNDQVLFIDQGNRPLFEDMTDSDMRDNAPRTIFIISMYKSPQPRGMAVSISVKSEKISTLSSENKIISFKEMNPPDSIKDTKSDIIFFQQSVPGHDNKMQFESSSYEGYFLASEKERDLFKLILKKEDELGDRSIMFTVQNED ?
7.45 pM

Quick one: EC50 (pM) + 100 nM BP, HEK-blue re-screening for IL-18 variant G3Q, E6N (ligand) YFQKLNSKLSVIRNLNDQVLFIDQGNRPLFEDMTDSDMRDNAPRTIFIISMYKDSQPRGMAVTISVKSEKISTLSSENKIISFKEMNPPDNIKDTKSDIIFFQRSVPGHDNKMQFESSSYEGYFLASEKERDLFKLILKKEDELGDRSIMFTVQNED ?
8.61 pM

Quick one: EC50 (pM) + 100 nM BP, HEK-blue re-screening for IL-18 variant G3Q, E6H, D54N, S55I, T63S, N91V (ligand) YFQKLHSKLSVIRNLNDQVLFIDQGNRPLFEDMTDSDMRDNAPRTIFIISMYKNIQPRGMAVSISVKSEKISTLSSENKIISFKEMNPPDVIKDTKSDIIFFQRSVPGHDNKMQFESSSYEGYFLASEKERDLFKLILKKEDELGDRSIMFTVQNED ?
5.23 pM
